All figures here come from patent US20260297035A1.

Assay: Relative viability (CellTiterGlo) of senescent IMR90 fibroblasts
Type: cell-based, human
Details: human, senescent imr90 fibroblasts; at 0.4 nM and 1250 nM
Structures can show the parent of a compound that is named as a salt.
quantity: viability (%)
State the answer as a number, implicitly in %.

State its viability for this compound: Cc1ccc(Nc2ncc3cccc(-c4ccc(F)cc4OC(C)C)c3n2)cc1N [Cmpd51, hydrochloride]
100

----------
Target: ABL1 T315I (Homo sapiens, UniProt P00519, T315I)
Construct: The ABL1 variant polypeptides utilized contained the same polypeptide as the “isoahABL1(wt)” polypeptide except that each contained one corresponding amino acid substitution
Assay: Z′-LYTE assay, ABL1 T315I
Format: biochemical
Details: class by IC50 values in Table 5; read-out: inhibitor class of ABL(T315I) according to IC50
Source text: This Example describes a cell-free assay utilized to identify candidate compounds that bind to and inhibit protein kinase (PK) and PK variants. One assay is referred to as a “Z′-LYTE assay” and is an example of a labeled peptide cleavage assay. The fluorescence-based assay relies on the differential sensitivity of a small, dual-end-labelled peptide to cleavage by a protease, dependent on the phosphorylation state of the peptide (FIG. 1). […]
pIC50: −log10 of the molar value.
Field: pIC50. Provide a value for each of the molecules that follow.

State its pIC50 for this molecule: CNC(=O)c1ccc(C(=O)Nc2cc(Nc3ncc4cccc(-c5ccc(F)cc5OC(C)C)c4n3)ccc2C)cc1 [Cmpd10]
> 7.70

State its pIC50 for this molecule: Cc1ccc(Nc2ncc3cccc(-c4ccc(F)cc4OC(C)C)c3n2)cc1NC(=O)c1ccc(C(=O)N(C)C)cc1 [Cmpd11]
> 7.70

----------
Target: ABL1(wt) (Homo sapiens)
Assay: Z′-LYTE assay (labeled peptide cleavage), ABL1(wt)
Format: biochemical
Details: test compounds; Z′-LYTE; read-out: IC50 values for test compounds, ABL1(wt)
quantity: IC50 (nM)
State the answer as a number, implicitly in nM.

State its IC50 for this compound: Cc1ccc(Nc2ncc3cccc(-c4ccc(F)cc4OC(C)C)c3n2)cc1NC(=O)c1ccc(C(=O)N(C)C)cc1
2.93

State its IC50 for this compound: CNC(=O)c1ccc(C(=O)Nc2cc(Nc3ncc4cccc(-c5ccc(F)cc5OC(C)C)c4n3)ccc2C)cc1
11.2

----------
Assay: Relative viability (CellTiterGlo) of senescent IMR90 fibroblasts
Format: cell-based, human
Conditions: human, senescent imr90 fibroblasts; at 0.8 nM and 800 nM
quantity: viability (%)
State the answer as a number, implicitly in %.

State its viability for this compound: C=CC(=O)Nc1cc(Nc2ncc3cccc(-c4ccc(F)cc4OC(C)C)c3n2)ccc1C
100

----------
Biological target: UniProt:P00519
Assay: Z′-LYTE assay (labeled peptide cleavage), ABL1(wt)
Type: biochemical
Conditions: class by IC50 values in Table 5; read-out: inhibitor class of ABL1(wt) according to IC50
pIC50: −log10 of the molar value.
quantity: pIC50

Would you please give the reported pIC50 of CNC(=O)c1ccc(C(=O)Nc2cc(Nc3ncc4cccc(-c5ccc(F)cc5OC(C)C)c4n3)ccc2C)cc1 with UniProt:P00519?
> 7.70

Would you please give the reported pIC50 of Cc1ccc(Nc2ncc3cccc(-c4ccc(F)cc4OC(C)C)c3n2)cc1NC(=O)c1ccc(C(=O)N(C)C)cc1 with UniProt:P00519?
> 7.70

----------
Assay: non-GLP multi-dose toxicity study (dose escalation, daily IP injection)
Assay type: in vivo, mouse (6-week-old Balb/c females)
Conditions: mouse, in vivo; mice, daily IP, 18 mg/kg (12X EC50), by day 7; read-out: expiration of animals (2 out of 5)
quantity: mortality at 168 h (%)
State the answer as a number, implicitly in %.

State its mortality at 168 h for this compound: Cc1ccc(Nc2ncc3cccc(-c4ccc(F)cc4OC(C)C)c3n2)cc1NC(=O)c1ccc(C(=O)N(C)C)cc1
40
